Data credit: paper PMC3904387

cytotoxicity (in words), Madin-Darby canine kidney (MDCK) cells, per-entry values.

{"compound": "CC(=O)N1CCC2(CC1)CC(=O)c1ccc(O)c(O)c1O2 [compound 12]", "cytotoxicity (in words)": "lack cytotoxicity"}
{"compound": "O=C1CC2(CCCCC2)Oc2c1ccc(O)c2O [compound 11]", "cytotoxicity (in words)": "lack cytotoxicity"}
{"compound": "O=C(N/N=C\\c1cccc(Cl)c1Cl)c1ccc(O)c(O)c1 [compound 6]", "cytotoxicity (in words)": "cytotoxic"}
{"compound": "COc1ccccc1N1CCN(/N=C/c2ccc(O)c(O)c2)CC1 [compound 8]", "cytotoxicity (in words)": "cytotoxic"}
